Biological target: LXRβ (Homo sapiens, UniProt P55055)
Construct: Co-transfection expression plasmids, comprising full-length LXRα (pCMX-h LXRα[…] or LXRβ (pCMX-hLXRβ))
Test: Co-transfection assay (LXRE luciferase reporter), LXRβ
Conditions: CV-1 cells transfected with pCMX-hLXRβ and LXREx1-Tk-Luciferase; 20 hours incubation
Listing: pEC50 of selected compounds
Give only the number. pEC50 is defined as minus log10 of concentration in molar units.

*Q* Which pEC50 reading was recorded for the compound Cc1nc(C(F)F)c(Cl)n1-c1ccc(-c2cccc(S(C)(=O)=O)c2)cc1-n1nncc1-c1ccc(OC(F)(F)F)cc1 [Example 172] ?
*A* 5.99

====

The reader will find reported EC50 values listed item by item below.
Molecular target: LXRβ (Homo sapiens, UniProt P55055)
Construct: Co-transfection expression plasmids, comprising full-length LXRα (pCMX-h LXRα[…] or LXRβ (pCMX-hLXRβ))
Sequence (P55055 1-460): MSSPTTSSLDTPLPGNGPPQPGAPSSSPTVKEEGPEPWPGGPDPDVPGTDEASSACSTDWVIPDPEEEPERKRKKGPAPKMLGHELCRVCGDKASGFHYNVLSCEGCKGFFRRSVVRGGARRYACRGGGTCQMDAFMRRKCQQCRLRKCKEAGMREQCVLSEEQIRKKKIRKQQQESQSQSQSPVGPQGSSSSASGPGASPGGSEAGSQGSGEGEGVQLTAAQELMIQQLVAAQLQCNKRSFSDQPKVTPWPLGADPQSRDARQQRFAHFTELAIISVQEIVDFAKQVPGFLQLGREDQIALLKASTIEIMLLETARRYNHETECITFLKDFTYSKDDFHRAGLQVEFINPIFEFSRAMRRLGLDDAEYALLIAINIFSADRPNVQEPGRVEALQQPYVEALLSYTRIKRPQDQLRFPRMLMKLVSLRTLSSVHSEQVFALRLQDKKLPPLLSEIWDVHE
Sequence (P19793 1-462 partner): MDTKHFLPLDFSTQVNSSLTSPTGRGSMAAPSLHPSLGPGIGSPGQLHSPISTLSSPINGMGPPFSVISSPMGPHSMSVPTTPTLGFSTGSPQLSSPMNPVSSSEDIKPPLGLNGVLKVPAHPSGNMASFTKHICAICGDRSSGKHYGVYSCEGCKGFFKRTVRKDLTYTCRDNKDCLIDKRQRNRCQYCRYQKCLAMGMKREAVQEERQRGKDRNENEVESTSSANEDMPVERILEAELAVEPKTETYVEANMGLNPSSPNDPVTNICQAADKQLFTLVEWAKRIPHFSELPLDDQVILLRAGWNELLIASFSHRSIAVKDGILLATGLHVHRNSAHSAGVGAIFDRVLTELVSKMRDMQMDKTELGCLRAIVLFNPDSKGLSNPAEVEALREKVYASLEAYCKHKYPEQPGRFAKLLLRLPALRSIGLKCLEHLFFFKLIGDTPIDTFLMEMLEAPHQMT
Assay: Co-transfection assay (LXRE luciferase reporter), LXRβ
Conditions: CV-1 cells transfected with pCMX-hLXRβ and LXREx1-Tk-Luciferase; 20 hours incubation
Kindly provide the numeric value in nM only, without the unit symbol.

INSERT INTO assay_data (compound, property, value_reported) VALUES
  ('Cc1nc(-c2cc(-c3cccc(S(C)(=O)=O)c3)ccc2-n2cc(C(F)(F)F)nc2C)c(-c2ccc(SC(F)(F)F)cc2)o1', 'EC50', 157);

*Q* // EC50 lookup, key: `Cc1nc(C(F)(F)F)cn1-c1c(Cl)cc(-c2cc(F)c(CO)c(S(C)(=O)=O)c2)cc1-n1nncc1-c1ccc(OC(F)(F)F)cc1`
*A* 241

*Q* What would you report for `Cc1nc(C(F)F)cn1-c1ccc(-c2cccc(S(C)(=O)=O)c2)cc1-n1nncc1-c1ccc(OC(F)(F)F)cc1` ?
*A* 848

*Q* Note, next up: Cc1nc(C(F)(F)F)cn1-c1ccc(-c2cc(F)c(CO)c(S(C)(=O)=O)c2)cc1-n1nncc1C(C)c1ccc(Cl)cc1 (stereo not shown)
*A* 111

*Q* Further, for `Cc1nc(C(F)(F)F)cn1-c1ccc(-c2cc(F)c(CO)c(S(C)(=O)=O)c2)c(Cl)c1-n1nncc1-c1ccc(Cl)cc1Cl` ?
*A* 1240

*Q* Another compound to check: `Cc1ccc(-c2oc(C)nc2-c2cc(-c3cccc(S(C)(=O)=O)c3)ccc2-n2cc(C(F)(F)F)nc2C)c(Cl)n1`
*A* 110

*Q* Next up: `Cc1nc(-c2cc(-c3cccc(S(C)(=O)=O)c3)ccc2-n2cc(C(F)(F)F)nc2C)c(-c2cc(F)c(OC(F)F)c(F)c2)o1`
*A* 175

*Q* // repeat for `Cc1nc(C(F)(F)F)cn1-c1ccc(-c2cccc(C(C)(C)C(N)=O)c2)cc1-n1nncc1C(=O)c1ccc(C(F)(F)F)cc1` and report
*A* 886

*Q* What do you have for `Cc1nc(C(F)F)cn1-c1ccc(-c2cccc(S(C)(=O)=O)c2)cc1-n1nncc1-c1ccc(Cl)cc1` ?
*A* 977

*Q* Entry Cc1ccc(C(C)c2cnnn2-c2cc(-c3cc(F)c(CO)c(S(C)(=O)=O)c3)ccc2-n2cc(C(F)(F)F)nc2C)cc1 (stereo not shown) please
*A* 66

*Q* Field entry: `Cc1nc(-c2cc(-c3cccc(S(C)(=O)=O)c3)ccc2-n2cc(C(F)(F)F)nc2C)c(-c2ccc(F)cc2F)o1`
*A* 71

*Q* Can you handle `Cc1nc(C(F)(F)F)cn1-c1ccc(-c2cccc(S(C)(=O)=O)c2)cc1-n1nncc1C(=O)c1cccc(C(F)(F)F)c1` next?
*A* 1090

*Q* // next record `Cc1nc(C(F)(F)F)cn1-c1ccc(-c2ccc(CO)c(S(C)(=O)=O)c2)cc1-c1nc(CCO)oc1-c1ccc(OC(F)(F)F)cc1`
*A* 1770

====

Target: LXRβ (Homo sapiens)
Construct: Co-transfection expression plasmids, comprising full-length LXRα (pCMX-h LXRα[…] or LXRβ (pCMX-hLXRβ)); expressed in transfected cells; host or cells: CV-1 African Green Monkey Kidney Cells
Assay: Co-transfection assay (LXRE luciferase reporter), LXRβ
Type: cell-based
Conditions: LXRβ co-transfection; relative to high control 1-(2,4-difluorobenzyl)-2-oxo-6-(4-phenoxyphenyl)-4-(trifluoromethyl)-1,2-dihydropyridine-3-carbonitrile; read-out: % Efficacy
Reported Emax values for a set of compounds
The figure you give is taken to be in %; do not add the unit.

INSERT INTO assay_data (smiles, value_reported) VALUES
  ('Cc1ccc(-c2cnnn2-c2cc(-c3cccc(S(C)(=O)=O)c3)ccc2-n2cc(C(F)F)nc2C)cc1', 81),
  ('Cc1nc(-c2cc(-c3cccc(C(C)(C)C(N)=O)c3)ccc2-n2cc(C(F)(F)F)nc2C)c(-c2ccc(OC(F)F)cc2)o1', 89),
  ('Cc1nc(C(F)(F)F)cn1-c1ccc(-c2cc(F)c(CO)c(S(C)(=O)=O)c2)cc1-n1nncc1-c1ccc2occc2c1', 91);

Let us examine a further case.
*Q* Field request: Emax | item: `Cc1nc(C(=O)C(C)C)cn1-c1ccc(-c2cccc(S(C)(=O)=O)c2)cc1-n1nncc1-c1ccc(OC(F)(F)F)cc1`
*A* 75

====

Biological target: LXRβ (Homo sapiens, UniProt P55055)
Construct: Co-transfection expression plasmids, comprising full-length LXRα (pCMX-h LXRα[…] or LXRβ (pCMX-hLXRβ)); expressed in transfected cells; host or cells: CV-1 African Green Monkey Kidney Cells
Test: Co-transfection assay (LXRE luciferase reporter), LXRβ
Type: cell-based
Conditions: LXRβ co-transfection; relative to high control 1-(2,4-difluorobenzyl)-2-oxo-6-(4-phenoxyphenyl)-4-(trifluoromethyl)-1,2-dihydropyridine-3-carbonitrile; read-out: % Efficacy
property: Emax
Enter the number, and then the unit.

A selection of reference data follows.
INSERT INTO assay_data (compound, target_of_assay, property, value_reported) VALUES
  ('Cc1nc(C(F)(F)F)cn1-c1ccc(-c2cccc(S(C)(=O)=O)c2)cc1-n1nncc1-c1ccc(N(C)C)cc1 [Example 22]', 'LXRβ (Homo sapiens, UniProt P55055)', 'Emax', '99%'),
  ('Cc1nc(C(F)(F)F)cn1-c1ccc(-c2cc(F)c(CO)c(S(C)(=O)=O)c2)cc1-c1ccnn1-c1ccc(OC(F)(F)F)cc1 [Example 292]', 'LXRβ (Homo sapiens, UniProt P55055)', 'Emax', '70%');

*Q* Which Emax value is on record for COCS(=O)(=O)c1cccc(-c2ccc(-n3cc(C(F)(F)F)nc3C)c(-n3nncc3-c3ccc(OC(F)(F)F)cc3)c2)c1 [Example 238] ?
*A* 90%

*Q* Same lookup for Cc1nc(C(C)(F)F)cn1-c1ccc(-c2cc(F)c(CO)c(S(C)(=O)=O)c2)cc1-n1nncc1-c1ccc(OC(F)(F)F)cc1 [Example 174] , please.
*A* 88%

*Q* What do you have for Cc1nc(C(F)(F)F)cn1-c1ccc(-c2cccc(S(C)(=O)=O)c2)cc1-n1nncc1-c1ccc(Cl)cc1Cl [Example 76] ?
*A* 69%

*Q* Request: Cc1nc(-c2cc(-c3cc(F)c(CO)c(S(C)(=O)=O)c3)ccc2-n2cc(C(F)(F)F)nc2C)c(-c2ccc(OC(F)F)nc2)o1 [Example 385]
*A* 79%

Data provenance: patent US9834542B2
